// data source = ChEMBL document CHEMBL3875173

# Target Desc: ABCG2 (Homo sapiens, UniProt Q9UNQ0)
# Sequence (Q9UNQ0 whole entry): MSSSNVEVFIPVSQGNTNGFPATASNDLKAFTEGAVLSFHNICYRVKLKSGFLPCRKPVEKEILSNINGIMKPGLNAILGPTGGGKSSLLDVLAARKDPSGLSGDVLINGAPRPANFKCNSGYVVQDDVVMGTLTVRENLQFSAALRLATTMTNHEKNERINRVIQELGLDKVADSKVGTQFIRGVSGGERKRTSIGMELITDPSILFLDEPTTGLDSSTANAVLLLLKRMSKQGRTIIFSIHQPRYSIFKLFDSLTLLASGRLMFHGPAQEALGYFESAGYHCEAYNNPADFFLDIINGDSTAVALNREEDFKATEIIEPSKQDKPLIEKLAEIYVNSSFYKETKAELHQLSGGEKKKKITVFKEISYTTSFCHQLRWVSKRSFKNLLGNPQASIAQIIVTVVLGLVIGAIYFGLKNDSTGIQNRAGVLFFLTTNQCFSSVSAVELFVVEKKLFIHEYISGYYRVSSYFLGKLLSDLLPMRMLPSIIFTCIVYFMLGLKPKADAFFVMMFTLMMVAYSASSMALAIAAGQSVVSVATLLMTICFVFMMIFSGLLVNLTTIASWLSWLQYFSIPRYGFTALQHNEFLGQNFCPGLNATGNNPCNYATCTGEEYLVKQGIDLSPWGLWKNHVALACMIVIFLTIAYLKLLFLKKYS
# Assay Overview: Inhibition of recombinant human GFP-fused ABCG2 expressed in MDCK2 cells assessed as reduction in pheophorbide A efflux at 10 uM preincubated for 30 mins followed by pheophorbide A addition measured after 2 hrs by flow cytometry relative to XR9577
# Format: cell-based, MDCK-II
# Recorded Conditions: MDCK2 cells expressing recombinant human GFP-fused ABCG2, probe pheophorbide A, read-out: Imax
Readout Name: Emax at 2 h, 10 µM (%)
Record the value in %, omitting the unit from your answer.

>>> df
                            chemical_string        readout_name  recorded_number
0  COc1ccc(C(=O)Nc2ccccc2-c2nnn(-c3ccc(SC)cc3)n2)cc1  Emax at 2 h, 10 µM               85
1  O=C(Nc1ccccc1-c1nnn(-c2ccccc2)n1)c1cccc([N+](=O)[O-])c1  Emax at 2 h, 10 µM               98
2  O=C(Nc1ccccc1-c1nnn(-c2ccccc2)n1)c1ccccc1[N+](=O)[O-]  Emax at 2 h, 10 µM               76
3  COc1ccc(C(=O)Nc2ccccc2-c2nnn(-c3ccc(OC)cc3)n2)cc1  Emax at 2 h, 10 µM               92
4  COc1ccc(-n2nnc(-c3ccccc3NC(=O)c3cccc([N+](=O)[O-])c3)n2)cc1  Emax at 2 h, 10 µM               56
5  COc1ccc(-n2nnc(-c3ccccc3NC(=O)c3ccccc3)n2)cc1OC  Emax at 2 h, 10 µM               95
6  O=C(Nc1ccccc1-c1nnn(-c2ccccc2)n1)c1ccc([N+](=O)[O-])cc1  Emax at 2 h, 10 µM               69
7  O=C(Nc1ccccc1-c1nnn(-c2ccccc2)n1)c1ccc(C(F)(F)F)cc1  Emax at 2 h, 10 µM              100
8  O=C(Nc1ccccc1-c1nnn(-c2ccccc2)n1)c1ccccc1  Emax at 2 h, 10 µM              109

Item COc1ccc(C(=O)Nc2ccccc2-c2nnn(-c3ccc(C(C)C)cc3)n2)cc1 has what recorded Emax at 2 h, 10 µM?
95

###

This section presents compounds with their documented pIC50 values.
# Target Desc: Broad substrate specificity ATP-binding cassette transporter ABCG2 (Homo sapiens)
# Assay Overview: Inhibition of recombinant human GFP-fused ABCG2 expressed in MDCK2 cells assessed as reduction in Hoechst 33342 efflux preincubated for 30 mins followed by Hoechst 33342 addition measured immediately at 60 sec time interval for 120 mins by fluorescence assay
# Type: cell-based, MDCK-II
Entry type: numeric. Quantity: pIC50, the -log10 of concentration in molar units.

Worked examples, 2 compounds total:
                            chemical_string  readout_name  recorded_number
0  COc1ccc(C(=O)Nc2ccccc2-c2nnn(-c3ccccc3)n2)cc1         pIC50             6.70
1  COc1ccc(C(=O)Nc2ccccc2-c2nnn(-c3ccc(SC)cc3)n2)cc1         pIC50             6.88

Item CCCc1ccc(C(=O)Nc2ccccc2-c2nnn(-c3ccccc3)n2)cc1 has what recorded pIC50?
6.67

###

# Target Desc: UniProt:Q9UNQ0
# Sequence (Q9UNQ0 whole entry): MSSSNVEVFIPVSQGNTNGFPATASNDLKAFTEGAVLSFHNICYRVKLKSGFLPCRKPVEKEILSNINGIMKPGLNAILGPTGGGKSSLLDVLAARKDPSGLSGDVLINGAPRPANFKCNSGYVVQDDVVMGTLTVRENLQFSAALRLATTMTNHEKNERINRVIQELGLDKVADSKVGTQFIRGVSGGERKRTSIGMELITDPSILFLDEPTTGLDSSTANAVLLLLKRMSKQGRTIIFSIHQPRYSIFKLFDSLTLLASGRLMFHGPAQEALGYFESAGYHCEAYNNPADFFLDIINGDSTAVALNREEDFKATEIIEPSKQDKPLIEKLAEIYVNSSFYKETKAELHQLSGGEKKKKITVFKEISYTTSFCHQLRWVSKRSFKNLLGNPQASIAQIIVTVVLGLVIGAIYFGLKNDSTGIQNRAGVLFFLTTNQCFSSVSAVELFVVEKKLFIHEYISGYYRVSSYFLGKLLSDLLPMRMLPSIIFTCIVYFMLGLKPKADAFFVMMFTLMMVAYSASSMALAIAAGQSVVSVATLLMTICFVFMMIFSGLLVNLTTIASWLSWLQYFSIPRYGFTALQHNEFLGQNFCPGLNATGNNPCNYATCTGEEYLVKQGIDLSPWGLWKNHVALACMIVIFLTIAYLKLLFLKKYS
# Assay Overview: Inhibition of recombinant human GFP-fused ABCG2 expressed in MDCK2 cells assessed as reduction in Hoechst 33342 efflux preincubated for 30 mins followed by Hoechst 33342 addition measured immediately at 60 sec time interval for 120 mins by fluorescence assay
# Format: cell-based, MDCK-II
Readout Name: pIC50
Entry type: numeric. Quantity: pIC50, the -log10 of concentration in molar units.

In [3]: df
Out[3]:
                            chemical_string  recorded_number
0  O=C(Nc1ccccc1-c1nnn(-c2ccccc2)n1)c1ccc(C(F)(F)F)cc1             5.36
1  COc1ccc(-n2nnc(-c3ccccc3NC(=O)c3ccccc3)n2)cc1OC             6.64
2  O=C(Nc1ccccc1-c1nnn(-c2ccccc2)n1)c1ccccc1             7.17
3  COc1ccc(C(=O)Nc2ccccc2-c2nnn(-c3ccc(Cl)cc3)n2)cc1             6.65
4  CSc1ccc(-n2nnc(-c3ccccc3NC(=O)c3ccccc3[N+](=O)[O-])n2)cc1             6.66
5  COc1ccc(C(=O)Nc2ccccc2-c2nnn(-c3ccccc3)n2)cc1OC             6.08
6  O=C(Nc1ccccc1-c1nnn(-c2ccccc2)n1)c1ccccc1[N+](=O)[O-]             6.55
7  O=C(Nc1ccccc1-c1nnn(-c2ccccc2)n1)c1ccc([N+](=O)[O-])cc1             6.82

Item COc1ccc(C(=O)Nc2ccccc2-c2nnn(-c3ccc(OC)cc3)n2)cc1 has what recorded pIC50?
6.70

Item COc1ccc(-n2nnc(-c3ccccc3NC(=O)c3cccc([N+](=O)[O-])c3)n2)cc1 has what recorded pIC50?
6.77

Item COc1ccc(-n2nnc(-c3ccccc3NC(=O)c3ccc(C(F)(F)F)cc3)n2)cc1OC has what recorded pIC50?
6.48

Item CCOc1ccc(-n2nnc(-c3ccccc3NC(=O)c3ccccc3[N+](=O)[O-])n2)cc1 has what recorded pIC50?
6.51

Item O=C(Nc1ccccc1-c1nnn(-c2ccccc2)n1)c1cccc([N+](=O)[O-])c1 has what recorded pIC50?
6.90

###

# Target Desc: ABCG2 (Homo sapiens)
# Assay Overview: Inhibition of recombinant human GFP-fused ABCG2 expressed in MDCK2 cells assessed as reduction in Hoechst 33342 efflux at 10 uM preincubated for 30 mins followed by Hoechst 33342 addition measured immediately at 60 sec time interval for 120 mins by fluorescence assay relative to XR9577
# Type: cell-based, MDCK-II
# Recorded Conditions: MDCK2 cells expressing recombinant human GFP-fused ABCG2, probe Hoechst 33342, read-out: Imax
Readout Name: Emax at 2 h, 10 µM (%)
Record the value in %, omitting the unit from your answer.

                            chemical_string  recorded_number
0  COc1ccc(-n2nnc(-c3ccccc3NC(=O)c3ccccc3)n2)cc1OC              104

Item COc1ccc(-n2nnc(-c3ccccc3NC(=O)c3ccc(C(F)(F)F)cc3)n2)cc1OC has what recorded Emax at 2 h, 10 µM?
80

Item COc1ccc(C(=O)Nc2ccccc2-c2nnn(-c3ccccc3)n2)cc1 has what recorded Emax at 2 h, 10 µM?
101

Item O=C(Nc1ccccc1-c1nnn(-c2ccccc2)n1)c1ccccc1 has what recorded Emax at 2 h, 10 µM?
90
